target: human Factor XIa (Homo sapiens (Human), UniProt P03951)
Sequence (P03951 388-625 limits assumed): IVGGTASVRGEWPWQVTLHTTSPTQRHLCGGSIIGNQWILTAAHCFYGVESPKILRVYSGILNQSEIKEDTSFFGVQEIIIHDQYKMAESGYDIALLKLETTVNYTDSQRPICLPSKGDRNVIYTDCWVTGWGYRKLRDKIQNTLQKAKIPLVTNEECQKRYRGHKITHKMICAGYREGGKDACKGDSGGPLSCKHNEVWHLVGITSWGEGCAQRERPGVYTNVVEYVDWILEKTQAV
Sequence (P03951 19-387 partner limits assumed): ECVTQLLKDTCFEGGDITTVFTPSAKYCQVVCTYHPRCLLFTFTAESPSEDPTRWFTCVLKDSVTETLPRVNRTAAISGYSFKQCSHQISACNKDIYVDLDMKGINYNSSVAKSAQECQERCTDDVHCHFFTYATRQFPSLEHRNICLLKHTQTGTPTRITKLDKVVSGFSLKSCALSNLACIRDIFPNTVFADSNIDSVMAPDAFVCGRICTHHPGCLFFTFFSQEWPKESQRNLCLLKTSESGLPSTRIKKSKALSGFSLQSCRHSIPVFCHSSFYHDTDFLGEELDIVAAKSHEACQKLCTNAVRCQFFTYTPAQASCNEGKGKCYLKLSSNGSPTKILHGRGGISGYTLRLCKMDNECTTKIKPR
# key: entry, value: IC50

These solved cases illustrate the format of a correct answer.
compound	tested-target	IC50
Cc1nc(N2C[C@@H]3C[C@@H]3C2=O)ncc1[C@H](CO)n1cc(NC(=O)c2cncc(-c3c(C(F)F)ccc(Cl)c3F)n2)cn1 [Example 158]	human Factor XIa (Homo sapiens (Human), UniProt P03951)	> 10 µM
Cc1c(C(C)n2cc(NC(=O)c3cncc(-c4c(C(F)F)ccc(Cl)c4F)n3)cn2)nnc(N2C[C@H]3C[C@H]3C2=O)c1C (single isomer, unassigned) [Example 111]	human Factor XIa (Homo sapiens (Human), UniProt P03951)	0.108 µM
Cc1c(C(CO)n2cc(NC(=O)c3cncc(-c4c(C(F)F)ccc(Cl)c4F)n3)cn2)cnc(N2C[C@H]3C[C@H]3C2=O)c1C (single isomer, unassigned) [Example 168]	human Factor XIa (Homo sapiens (Human), UniProt P03951)	0.261 µM
Cc1ncc(-c2c(C(F)F)ccc(Cl)c2F)nc1C(=O)Nc1cnn([C@@H](C)c2cnc(N3C[C@H]4C[C@H]4C3=O)c(O)c2)c1 [Example 217]	human Factor XIa (Homo sapiens (Human), UniProt P03951)	4.15 µM
CC(c1cnc(N2C[C@H]3C[C@H]3C2=S)nc1)n1cc(NC(=O)c2cncc(-c3c(C(F)F)ccc(Cl)c3F)n2)cn1 (single isomer, unassigned) [Example 32]	human Factor XIa (Homo sapiens (Human), UniProt P03951)	> 10 µM
O=C(Nc1cnn(Cc2cnc(N3C[C@H]4C[C@H]4C3=O)c(Cl)c2)c1)c1cncc(-c2c(C(F)F)ccc(Cl)c2F)n1 [Example 8]	human Factor XIa (Homo sapiens (Human), UniProt P03951)	> 10 µM
CC(c1cnc(N2C[C@H]3C[C@H]3C2=O)c2c1OC(F)(F)O2)n1cc(NC(=O)c2cncc(-c3c(C(F)F)ccc(Cl)c3F)n2)cn1 (single isomer, unassigned) [Example 248]	human Factor XIa (Homo sapiens (Human), UniProt P03951)	> 10 µM
O=C(Nc1cnn(Cc2cnc(N3C[C@H]4C[C@H]4C3=O)nc2)c1)c1cncc(-c2c(C(F)F)ccc(Cl)c2F)n1 [Example 25]	human Factor XIa (Homo sapiens (Human), UniProt P03951)	4.69 µM

Incoming: Test system human Factor XIa (Homo sapiens (Human), UniProt P03951); read-out IC50; what value for Cc1c(C(C)n2cc(NC(=O)c3cncc(-c4c(C(F)F)ccc(Cl)c4F)n3)cn2)cnc(N2C[C@H]3C[C@H]3C2=O)c1C (single isomer, unassigned) [Example 153] ?
Outgoing: 2.17 µM

Incoming: Test system human Factor XIa (Homo sapiens (Human), UniProt P03951); read-out IC50; what value for Cc1cc(Cn2cc(NC(=O)c3nc(-c4c(C(F)F)ccc(Cl)c4F)cnc3C)cn2)nnc1N1C[C@H]2C[C@H]2C1=O [Example 83] ?
Outgoing: 0.259 µM

Incoming: Test system human Factor XIa (Homo sapiens (Human), UniProt P03951); read-out IC50; what value for Cc1ncc(-c2c(C(F)F)ccc(Cl)c2F)nc1C(=O)Nc1cnn(C(C)c2ncc(N3C[C@H]4C[C@H]4C3=O)cn2)c1 (single isomer, unassigned) [Example 6] ?
Outgoing: > 10 µM

Hey, just so you know, these numbers are from patent US20230286958A1.
